- test: Apparent permeability across basolateral to apical side in human Caco-2 cells at 10 uM by LC-MS/MS analysis

[
  {
    "smiles.str": "CCCc1nc2c(C)cc(-c3nc4ccccc4n3C)cc2n1Cc1ccc(-c2ccccc2C(=O)OC)cc1",
    "Papp B→A at 10 µM (×10⁻⁶ cm/s)": 0.2
  }
]

====

- test: Apparent permeability across apical to basolateral side in human Caco-2 cells at 10 uM by LC-MS/MS analysis

[
  {
    "smiles.str": "CCCc1nc2c(C)cc(-c3nc4ccccc4n3C)cc2n1Cc1ccc(-c2ccccc2C(=O)OC)cc1",
    "unit.label": "×10⁻⁶ cm/s",
    "Papp A→B at 10 µM": 0.1
  }
]
